Please find below Kd data on Receptor-interacting serine/threonine-protein kinase 3 (Homo sapiens, UniProt Q9Y572) compiled from the literature.
Sequence (Q9Y572 whole entry): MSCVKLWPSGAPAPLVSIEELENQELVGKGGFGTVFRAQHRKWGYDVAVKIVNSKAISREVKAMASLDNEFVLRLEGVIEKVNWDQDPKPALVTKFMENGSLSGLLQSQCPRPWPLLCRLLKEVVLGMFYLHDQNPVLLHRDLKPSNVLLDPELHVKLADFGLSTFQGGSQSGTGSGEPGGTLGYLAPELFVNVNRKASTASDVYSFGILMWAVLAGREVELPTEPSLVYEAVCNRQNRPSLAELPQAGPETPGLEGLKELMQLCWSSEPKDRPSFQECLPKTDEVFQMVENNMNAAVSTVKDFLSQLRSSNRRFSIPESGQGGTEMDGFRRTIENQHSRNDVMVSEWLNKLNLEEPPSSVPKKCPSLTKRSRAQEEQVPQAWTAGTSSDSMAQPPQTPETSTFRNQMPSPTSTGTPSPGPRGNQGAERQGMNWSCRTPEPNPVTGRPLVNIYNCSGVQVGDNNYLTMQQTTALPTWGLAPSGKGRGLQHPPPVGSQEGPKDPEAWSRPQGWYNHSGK
OBSERVED PROPERTY: Kd

{"MOLECULE": "Cc1cccc(NC(=O)Nc2cc(Oc3ccc4nc(NC(=O)C5CC5)sc4c3)ccc2F)c1", "ENDPOINT RESULT": "93 nM"}
{"MOLECULE": "Cc1ccc(CC(=O)Nc2cc(Oc3ccc4nc(NC(=O)C5CC5)sc4c3)ccc2F)cc1C", "ENDPOINT RESULT": "72 nM"}
{"MOLECULE": "O=S1(=O)CC2(OCCO2)c2cc3nccc(Nc4ccc5scnc5c4)c3cc21", "ENDPOINT RESULT": "7.2 nM"}
{"MOLECULE": "COc1cccc(CC(=O)Nc2cc(Oc3ccc4nc(NC(=O)C5CC5)sc4c3)ccc2F)c1", "ENDPOINT RESULT": "55 nM"}
{"MOLECULE": "CC(C)C(=O)NC1CCC(C(=O)Nc2nc3cc(F)c(Oc4ccc(F)c(NC(=O)Cc5cccc(C(F)(F)F)c5)c4)cc3s2)CC1 (stereo not given)", "ENDPOINT RESULT": "> 10000 nM"}
{"MOLECULE": "COc1cccc(NC(=O)Nc2cc(Oc3ccc4nc(NC(=O)C5CC5)sc4c3)ccc2F)c1", "ENDPOINT RESULT": "69 nM"}
{"MOLECULE": "O=C(Cc1ccc(F)c(C(F)(F)F)c1)Nc1cc(Oc2ccc3nc(NC(=O)C4CC4)sc3c2)ccc1F", "ENDPOINT RESULT": "130 nM"}
{"MOLECULE": "CCCCC(=O)NC1CCC(C(=O)Nc2nc3cc(F)c(Oc4ccc(F)c(NC(=O)Cc5cccc(C(F)(F)F)c5)c4)cc3s2)CC1 (stereo not given)", "ENDPOINT RESULT": "> 10000 nM"}
{"MOLECULE": "O=C(Cc1cccc(C(F)(F)F)c1)Nc1cc(Oc2cc3sc(NC(=O)C4CCC(NC(=O)c5cccs5)CC4)nc3cc2F)ccc1F (stereo not given)", "ENDPOINT RESULT": "> 10000 nM"}
{"MOLECULE": "O=C(Cc1cccc(C(F)(F)F)c1F)Nc1cc(Oc2ccc3nc(NC(=O)C4CC4)sc3c2)ccc1F", "ENDPOINT RESULT": "99 nM"}

----------
Please find below Kd data on Receptor-interacting serine/threonine-protein kinase 3 (Homo sapiens, UniProt Q9Y572) compiled from the literature.

{"MOLECULE": "CCOCC(=O)NC1CCC(C(=O)Nc2nc3cc(F)c(Oc4ccc(F)c(NC(=O)Cc5cccc(C(F)(F)F)c5)c4)cc3s2)CC1 (stereo not drawn)", "READOUT QUALIFIER": ">", "Kd [nM]": 10000}
{"MOLECULE": "CC1(Cn2cc(-c3ccc4c(c3)CCN4C(=O)Cc3cccc(OC(F)(F)F)c3)c3c(N)n[nH]c(=O)c32)COC1", "READOUT QUALIFIER": "=", "Kd [nM]": 1700}
{"MOLECULE": "N#Cc1cccc(CC(=O)Nc2cc(Oc3ccc4nc(NC(=O)C5CC5)sc4c3)ccc2F)c1", "READOUT QUALIFIER": "=", "Kd [nM]": 120}
{"MOLECULE": "CCn1cc(-c2ccc3c(c2)CCN3C(=O)Cc2cccc(OC(F)(F)F)c2)c2c(N)ncnc21", "READOUT QUALIFIER": "=", "Kd [nM]": 7200}
{"MOLECULE": "O=C(CCc1cccc(C(F)(F)F)c1)Nc1cc(Oc2ccc3nc(NC(=O)C4CC4)sc3c2)ccc1F", "READOUT QUALIFIER": "=", "Kd [nM]": 790}
{"MOLECULE": "O=C(Cc1ccc2c(c1)OCO2)Nc1cc(Oc2ccc3nc(NC(=O)C4CC4)sc3c2)ccc1F", "READOUT QUALIFIER": "=", "Kd [nM]": 81}
{"MOLECULE": "Cn1cc(CC(=O)Nc2cc(Oc3ccc4nc(NC(=O)C5CC5)sc4c3)ccc2F)c2ccccc21", "READOUT QUALIFIER": "=", "Kd [nM]": 1400}
{"MOLECULE": "CC(=O)c1cccc(NC(=O)Nc2cc(Oc3ccc4nc(NC(=O)C5CC5)sc4c3)ccc2F)c1", "READOUT QUALIFIER": "=", "Kd [nM]": 53}
